Recorded log10 of IC50 by entry
- Tested on: Vero
- ASSAY_PROTOCOL: Cytotoxicity against african green monkey Vero cells by sulforhodamine B assay
- Assay type: cell-based
- EXPERIMENTAL_PARAMETERS: Chlorocebus sabaeus
ENDPOINT: log10 of IC50 (log10 of the value in µg/mL)

1) C/C(C=O)=C\CCC1(C)C=Cc2cc(O)ccc2O1 (stereo not drawn) [ELAEAGIN]: 1.30
2) C=C1CCC[C@@]2(C)CC3=C(C[C@@H]12)C(=O)C=CC3=O [CORDIACHROME B]: 0.23
3) C=C[C@@]1(C)CC2=C(C[C@H]1C(=C)C)C(=O)C=CC2=O [Cordiachrome C]: 0.15
4) C/C(C=O)=C\CC/C(C)=C/Cc1cc(O)ccc1O [ALLIODORIN]: 1.15
5) C=C[C@]1(C)Cc2c(OC(C)=O)ccc(OC(C)=O)c2C[C@@H]1C(=C)C: 0.86

Every entry's value here was drawn from ChEMBL document CHEMBL1151953.
